Target: Receptor-type tyrosine-protein phosphatase F (Homo sapiens) (UniProt P10586)
Sequence (P10586 whole entry): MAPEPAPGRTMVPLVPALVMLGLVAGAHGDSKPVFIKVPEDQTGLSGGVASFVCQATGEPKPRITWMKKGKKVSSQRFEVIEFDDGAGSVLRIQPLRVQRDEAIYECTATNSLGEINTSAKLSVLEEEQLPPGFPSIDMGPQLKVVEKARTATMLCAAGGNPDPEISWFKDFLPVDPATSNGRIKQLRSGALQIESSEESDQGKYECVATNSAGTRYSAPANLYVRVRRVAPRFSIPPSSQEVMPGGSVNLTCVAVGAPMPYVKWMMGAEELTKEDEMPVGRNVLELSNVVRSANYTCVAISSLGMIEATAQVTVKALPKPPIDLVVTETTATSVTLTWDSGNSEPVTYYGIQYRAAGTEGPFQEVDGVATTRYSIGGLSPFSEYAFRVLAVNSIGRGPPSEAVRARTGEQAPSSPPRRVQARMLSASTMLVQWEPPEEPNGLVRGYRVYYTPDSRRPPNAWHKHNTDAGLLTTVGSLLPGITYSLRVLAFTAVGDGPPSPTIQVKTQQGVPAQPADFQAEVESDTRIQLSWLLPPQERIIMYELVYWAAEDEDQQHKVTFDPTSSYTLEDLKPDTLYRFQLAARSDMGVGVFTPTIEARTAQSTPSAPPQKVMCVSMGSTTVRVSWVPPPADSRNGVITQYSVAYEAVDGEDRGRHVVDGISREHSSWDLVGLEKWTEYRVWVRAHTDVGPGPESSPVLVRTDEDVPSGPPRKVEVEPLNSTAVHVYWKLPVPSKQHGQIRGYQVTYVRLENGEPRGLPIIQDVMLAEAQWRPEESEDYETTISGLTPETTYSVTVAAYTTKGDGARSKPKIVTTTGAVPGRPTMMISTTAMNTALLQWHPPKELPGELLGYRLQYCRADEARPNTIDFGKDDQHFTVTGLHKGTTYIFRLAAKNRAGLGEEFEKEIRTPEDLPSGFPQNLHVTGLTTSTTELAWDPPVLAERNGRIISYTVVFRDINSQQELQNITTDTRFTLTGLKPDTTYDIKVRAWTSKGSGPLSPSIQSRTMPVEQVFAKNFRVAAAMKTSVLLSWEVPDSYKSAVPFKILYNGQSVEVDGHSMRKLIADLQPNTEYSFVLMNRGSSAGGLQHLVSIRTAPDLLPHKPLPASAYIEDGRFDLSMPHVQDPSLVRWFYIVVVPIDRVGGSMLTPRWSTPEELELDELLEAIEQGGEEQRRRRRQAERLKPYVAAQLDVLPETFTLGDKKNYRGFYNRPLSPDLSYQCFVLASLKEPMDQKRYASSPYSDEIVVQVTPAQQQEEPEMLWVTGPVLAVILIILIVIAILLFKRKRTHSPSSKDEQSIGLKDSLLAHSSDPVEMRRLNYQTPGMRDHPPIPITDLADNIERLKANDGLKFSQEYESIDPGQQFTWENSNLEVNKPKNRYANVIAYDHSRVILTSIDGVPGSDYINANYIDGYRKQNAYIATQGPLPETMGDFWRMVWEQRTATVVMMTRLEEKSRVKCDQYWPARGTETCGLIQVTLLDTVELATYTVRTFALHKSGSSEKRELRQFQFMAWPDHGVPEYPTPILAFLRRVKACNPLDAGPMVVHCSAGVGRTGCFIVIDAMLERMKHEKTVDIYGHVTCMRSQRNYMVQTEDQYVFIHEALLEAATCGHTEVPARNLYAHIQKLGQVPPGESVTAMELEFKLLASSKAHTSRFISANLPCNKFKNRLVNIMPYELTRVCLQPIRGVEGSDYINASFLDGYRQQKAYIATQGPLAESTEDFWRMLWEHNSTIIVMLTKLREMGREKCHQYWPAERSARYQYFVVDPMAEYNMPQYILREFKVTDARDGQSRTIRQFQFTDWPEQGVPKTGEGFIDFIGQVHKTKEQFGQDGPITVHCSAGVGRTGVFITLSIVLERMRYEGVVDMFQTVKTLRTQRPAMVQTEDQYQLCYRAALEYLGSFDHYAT
Assay: Percent inhibition of Protein-tyrosine phosphatase Lar assayed at 100 uM
REPORTED METRIC: inhibition (%)

Completed entries (count: 5):
[[record]]
compound = "CCCCCNC(=O)C(Cc1ccc(OC(C(=O)O)C(=O)O)cc1)NC(=O)[C@H](Cc1ccc(OC)cc1)NC(=O)CCC(=O)O (stereo partly specified)"
numeric_readout = 22

[[record]]
compound = "CCCCCNC(=O)[C@H](Cc1ccc(OC(C(=O)O)C(=O)O)cc1)NC(=O)[C@H](Cc1ccc(C(=O)c2ccccc2)cc1)NC(=O)CCC(=O)O"
numeric_readout = 26

[[record]]
compound = "CCCCCNC(=O)C(Cc1ccc(OC(C(=O)O)C(=O)O)cc1)NC(=O)CC(C)(C)CC(=O)O (stereo unspecified)"
numeric_readout = 6

[[record]]
compound = "O=C(O)CCC(=O)NC(Cc1ccc(OC(C(=O)O)C(=O)O)cc1)C(=O)NCC1CCCCC1 (stereo unspecified)"
numeric_readout = 5

[[record]]
compound = "CCCCCNC(=O)C(Cc1ccc(OC(C(=O)O)C(=O)O)cc1)NC(=O)[C@H](Cc1ccccc1)NC(=O)OC(C)(C)C (stereo partly specified)"
numeric_readout = 27


(a) CCCCCNC(=O)C(Cc1ccc(OC(C(=O)O)C(=O)O)c(F)c1)NC(=O)CCC(=O)O (stereo unspecified)
(b) CCCCCNC(=O)C(Cc1ccc(OC(C(=O)O)C(=O)O)cc1)NC(=O)C1C2CCC(C2)[C@@H]1C(=O)O (stereo partly specified)
(c) CCCCCNC(=O)C(Cc1ccc(OCC(=O)O)c(C(N)=O)c1)NC(=O)CCC(=O)O (stereo unspecified)
(d) CCCCCNC(=O)C(Cc1ccc(OC(C(=O)O)C(=O)O)cc1)NC(=O)[C@H](COc1ccc(Cc2cc(Cl)ccc2Cl)cc1)NC(=O)OC(C)(C)C (stereo partly specified)
(e) CCCCCNC(=O)C(Cc1ccc(C=C(C(=O)O)C(=O)O)cc1)NC(=O)CCC(=O)O (stereo unspecified)
### Prompt Rank items: key inhibition, increasing. # answer = labels listed in requested order
### Response c, e, a, b, d
(c: 0%, e: 2%, a: 4%, b: 8%, d: 27%)

(A) CCCCCNC(=O)C(Cc1ccc(OC(C(=O)O)C(=O)O)cc1)NC(=O)CC1(CC(=O)O)CCCC1 (stereo unspecified)
(B) CCCCCCNC(=O)C(Cc1ccc(OC(C(=O)O)C(=O)O)cc1)NC(=O)CCC(=O)O (stereo unspecified)
(C) CCCCCNC(=O)C(Cc1ccc(OCC(=O)OC)c(C(=O)OC)c1)NC(=O)[C@H](Cc1ccccc1)NC(=O)OC(C)(C)C (stereo partly specified)
(D) CCCCCNC(=O)C(Cc1ccc(OCC(=O)OC)c(C(=O)OC)c1)NC(=O)[C@H](Cc1ccccc1)NC(=O)CCC(=O)OC (stereo partly specified)
### Prompt Endpoint returns the given compounds ordered by ascending inhibition. Provide the ranking by listing each label in its place in the requested order.
### Response C, D, B, A

(A) CCCCCNC(=O)C(Cc1ccc(OC(C(=O)O)C(=O)O)cc1)NC(=O)[C@H]1CCCC[C@@H]1C(=O)O (stereo partly specified)
(B) O=C(O)CCC(=O)NC(Cc1ccc(OC(C(=O)O)C(=O)O)cc1)C(=O)NCc1ccc(C(F)(F)F)cc1 (stereo unspecified)
### Prompt Return label of the item with the larger inhibition. Candidates: A , B . Lab log: write the label of the selected item as the result.
### Response A

---

Biological target: Receptor-type tyrosine-protein phosphatase F (Homo sapiens) (UniProt P10586)
Test: Percent inhibition of Protein-tyrosine phosphatase Lar assayed at 100 uM
REPORTED METRIC: inhibition (%)

(a) CCCCCNC(=O)C(Cc1ccc(OC(C(=O)O)C(=O)O)cc1)NC(=O)[C@H](Cc1ccc(OC)cc1)NC(=O)OC(C)(C)C (stereo partly specified)
(b) CCCCCNC(=O)C(Cc1ccc(OC(C(=O)O)C(=O)O)cc1)NC(=O)[C@H](CC(=O)O)NC(=O)OCc1ccccc1 (stereo partly specified)
(c) CCCCCNC(=O)C(Cc1ccc(OCC(=O)O)c(C(=O)O)c1)NC(=O)CCC(=O)O (stereo unspecified)
### Prompt Rank order required: inhibition, descending. Rank them, then answer with their labels in that order.
### Response a, b, c

(1) CCCCCNC(=O)[C@H](Cc1ccc(OC(C(=O)O)C(=O)O)cc1)NC(=O)[C@@H](Cc1ccc(C(=O)c2ccccc2)cc1)NC(=O)CCC(=O)O
(2) O=C(O)CCC(=O)NC(Cc1ccc(OC(C(=O)O)C(=O)O)cc1)C(=O)NCCC(c1ccccc1)c1ccccc1 (stereo unspecified)
### Prompt Compare inhibition: is it lower for 1 or for 2 ? Answer format: the label of the selected item.
### Response 1

---

Target: Tyrosine-protein phosphatase non-receptor type 11 (Mus musculus)
Assay: Percent inhibition of Tyrosine phosphatase SHP2 SH2 domain containing PTP involved in insulin uM
Set-up: concentration or dose not given beside the values
Details: concentration not given here
REPORTED METRIC: inhibition (%)

Past entries and their recorded results:
[[record]]
compound = "CCCCCNC(=O)C(Cc1ccc(OC(C(=O)O)C(=O)O)cc1)NC(=O)[C@H](CCC(=O)O)NC(=O)OC(C)(C)C (some centres undefined)"
numeric_readout = 14

[[record]]
compound = "O=C(O)CCC(=O)NC(Cc1ccc(OC(C(=O)O)C(=O)O)cc1)C(=O)NCCCN1CCOCC1 (centres undefined)"
numeric_readout = 2


(A) CCCCNC(=O)C(Cc1ccc(OC(C(=O)O)C(=O)O)cc1)NC(=O)CCC(=O)O (centres undefined)
(B) O=C(O)CCC(=O)NC(Cc1ccc(OC(C(=O)O)C(=O)O)cc1)C(=O)NCc1cccc2ccccc12 (centres undefined)
### Prompt Between A and B , which one shows the smaller inhibition number? Write the label of whichever entry you select.
### Response A
(A: 1%, B: 12%)

---

Target: Tyrosine-protein phosphatase non-receptor type 1 (Rattus norvegicus)
Assay: Percent inhibition of Protein-tyrosine phosphatase 1 (PTP) assayed at 100 uM
REPORTED METRIC: inhibition (%)

(I) CCCCCNC(=O)C(Cc1ccc(OC(=O)CC(=O)O)cc1)NC(=O)CCC(=O)O (stereo not drawn)
(II) O=C(O)CCC(=O)NC(Cc1ccc(OC(C(=O)O)C(=O)O)cc1)C(=O)NCCCc1ccccc1 (stereo not drawn)
### Prompt For this pair, I and II , which shows a numerically higher inhibition? Indicate your choice by writing its label.
### Response II
(II: 72%, I: 2%)

(I) O=C(O)CCC(=O)NC(Cc1ccc(OC(C(=O)O)C(=O)O)cc1)C(=O)NCc1ccc2c(c1)OCO2 (stereo not drawn)
(II) CCCCCNC(=O)C(Cc1ccc(OC(C(=O)O)C(=O)O)cc1)NC(=O)[C@H](Cc1ccc(OCc2ccccc2)cc1)NC(=O)CCC(=O)O (stereo partly drawn)
### Prompt API: POST /compare with I and II ; response names the item with higher inhibition. // caller expects the label of the chosen entry
### Response II
(II: 98%, I: 63%)

(A) CCCCCNC(=O)C(Cc1ccc(OC(C(=O)O)C(=O)O)cc1)NC(=O)CCC(N)=O (stereo not drawn)
(B) CCCCCNC(=O)C(Cc1ccc(OC(C(=O)OCC)C(=O)OCC)cc1)NC(=O)CCC(=O)O (stereo not drawn)
### Prompt For A and B , which recorded inhibition is lower? State your choice using its label.
### Response B

(A) CCCCCNC(=O)C(Cc1ccc(O/C(=C/C(=O)O)C(=O)O)cc1)NC(=O)CCC(=O)O (stereo not drawn)
(B) CCCCCNC(=O)C(Cc1ccc(OC(C(=O)O)C(=O)O)cc1)NC(=O)CC(=O)O (stereo not drawn)
(C) O=C(O)CCC(=O)NC(Cc1ccc(OC(C(=O)O)C(=O)O)cc1)C(=O)NCCN1CCCCC1 (stereo not drawn)
### Prompt // ascending sort on recorded inhibition I'd appreciate it if you listed the labels in the requested order.
### Response C, A, B

(P) CCCCCCNC(=O)C(Cc1ccc(OC(C(=O)O)C(=O)O)cc1)NC(=O)CCC(=O)O (stereo not drawn)
(Q) CCCCCNC(=O)C(CCc1ccc(OC(C(=O)O)C(=O)O)cc1)NC(=O)CCC(=O)O (stereo not drawn)
(R) O=C(O)CCC(=O)NC(Cc1ccc(OC(C(=O)O)C(=O)O)cc1)C(=O)NCCc1ccc(O)cc1 (stereo not drawn)
### Prompt Sort by inhibition, descending. Kindly provide the labels arranged according to the requested ordering.
### Response P, R, Q
(P: 74%, R: 43%, Q: 18%)

(1) CCCCCNC(=O)[C@H](Cc1ccc(OC(C(=O)O)C(=O)O)cc1)NC(=O)[C@H](Cc1ccc(C(=O)c2ccccc2)cc1)NC(=O)CCC(=O)O
(2) O=C(O)CCC(=O)NC(Cc1ccc(OC(C(=O)O)C(=O)O)cc1)C(=O)NCc1ccc(C(=O)O)cc1 (stereo not drawn)
(3) CCCCNC(=O)C(Cc1ccc(OC(C(=O)O)C(=O)O)cc1)NC(=O)CCC(=O)O (stereo not drawn)
### Prompt Order the items by recorded inhibition; the first position goes to the largest value. Quick reminder: the answer is the labels in the order asked.
### Response 1, 2, 3

(P) CCCCCNC(=O)C(Cc1ccc(OC(C(=O)O)C(=O)O)cc1)NC(=O)CCC(=O)O (stereo not drawn)
(Q) CC(C)CCNC(=O)C(Cc1ccc(OC(C(=O)O)C(=O)O)cc1)NC(=O)CCC(=O)O (stereo not drawn)
### Prompt Could you point out whether the larger inhibition belongs to P or to Q ? Use the label to indicate which entry you chose.
### Response P
(P: 76%, Q: 48%)

(1) CCCCC(N)C(=O)NC(=O)C(Cc1ccc(OC(C(=O)O)C(=O)O)cc1)NC(=O)CCC(=O)O (stereo not drawn)
(2) CC(C)CC(CO)NC(=O)C(Cc1ccc(OC(C(=O)O)C(=O)O)cc1)NC(=O)CCC(=O)O (stereo not drawn)
(3) CCCCCNC(=O)C(Cc1ccc(OC(C(=O)O)C(=O)O)cc1)NC(=O)CCC(=O)OCc1ccccc1 (stereo not drawn)
### Prompt Rank ascending by inhibition. Show the ranking through the labels, in the order asked for.
### Response 3, 2, 1
